Reference source: PubChem BioAssay (NCATS)

- Tested on: Es-2
- testMethodNotes: Primary qHTS to identify gynecologic anti-cancer compounds using libraries of approved drugs and bioactive compounds (AID 1345084); also: nearly all actives have a fitted effect of over 55% in size
- experimentalParameters: Gynecologic cancer cell panel viability, ATPlite luminescence, 48 h; series mostly up to 57.5 µM
Records with an inconclusive call do not appear. Activity calls are given as the source filed them. Calls follow the shape of the dose curve; as a rule, active = well fitted cell-killing curve with a large enough effect; inconclusive = small, poorly fitted or top-dose-only effect, or effect the other way; inactive = flat fitted curve, though single readings scatter.
Your reply should match one of these outcome classes. TRUE (active), FALSE (inactive)

Cn1nnc2c(C(N)=O)ncn2c1=O = FALSE
NC(=O)N1c2ccccc2CC(=O)c2ccccc21 = FALSE
Cc1cc(NS(=O)(=O)c2ccc(N)cc2)no1 = FALSE

Call for entry `O=C(O)CCn1c2c(c3ccccc31)C[C@H](NS(=O)(=O)c1ccc(F)cc1)CC2` :
FALSE

Call for entry `COC(=O)Nc1nc2ccc(Sc3ccccc3)cc2[nH]1` :
TRUE

Call for entry `O=S(=O)(c1cccc2cnccc12)N1CCCNCC1` :
FALSE
